Just for reference, PubChem BioAssay AID489023 is where these values come from.

Test system: 697B cells, BCR-induced NF-kB luciferase reporter luminescence
Test method notes: inhibitors of BCR-induced NF-kB activation, dose response, 697B cells, luciferase luminescence (AID 489023)
The source made the active and inactive calls. How the calls were made is not given here.
Allowed answers: active, inactive

Example results:
Problem: Called result for Cc1ccc(S(=O)(=O)Nc2ccc3c(c2)n(C)c(=O)n3C)cc1
Solution: inactive

Problem: Called result for Cc1ccoc1C(=O)Nc1ccc(CC(=O)O)cc1
Solution: active

Problem: Called result for Cc1ccc(/C=C2\SC(=S)N(CCCC(=O)NNC(=O)c3ccccc3O)C2=O)cc1
Solution: active

More entries:
Problem: Called result for O=C(CN1C(=O)c2ccccc2S1(=O)=O)c1ccccc1Cl
Solution: active

Problem: Called result for CCn1c(=O)cc(SCC(=O)N2CCOCC2)c2ccccc21
Solution: inactive

====

Test system: 697B cells, BCR-induced NF-kB luciferase reporter luminescence
Test method notes: inhibitors of BCR-induced NF-kB activation, dose response, 697B cells, luciferase luminescence (AID 489023)
Activity calls are given as the source filed them. The rule behind the calls is not given here.
Allowed answers: yes (1) (active), no (0) (inactive)

Example results:
Problem: Called result for CCOC(=O)c1cc2c(=O)n3ccccc3nc2n(CC(C)C)c1=NC(=O)c1c(-c2c(F)cccc2Cl)noc1C
Solution: no (0)

Problem: Called result for CCCNC(=O)CSCc1nc(-c2ccc(SC)cc2)oc1C
Solution: no (0)

Problem: Called result for CCN(CC)S(=O)(=O)c1ccc(N2CCOCC2)c(NC(=O)c2[nH]c(C)c(C(C)=O)c2C)c1
Solution: no (0)

Problem: Called result for Cc1ccc(/C=C2\SC(=S)N(CCCC(=O)Nc3cccnc3)C2=O)cc1
Solution: yes (1)

In the following, a different compound is considered.
Problem: Called result for COCCCNC(=O)COc1ccc(-c2nccc(-c3ccccn3)n2)cc1
Solution: yes (1)

====

System: 697B cells, BCR-induced NF-kB luciferase reporter luminescence
Test method notes: inhibitors of BCR-induced NF-kB activation, dose response, 697B cells, luciferase luminescence (AID 489023)
Calls of active or inactive are those of the source. No rule for the calls is given here.
Examples of molecules with documented IC50 follow.

Problem: Given the molecule CC1=CC(C)(C)Nc2ccc(OC(=O)CN3C(=O)CCC3=O)cc21 , what is its reported IC50?
Solution: 8.56 µM

Problem: Given the molecule CCN(CC)CCOC(=O)c1ccc(NC(=O)CCCN2C(=O)S/C(=C/c3ccc(OC)cc3)C2=S)cc1 , what is its reported IC50?
Solution: 2.11 µM

Problem: Given the molecule O=C(O)CCn1c(O)c(C=C2N=c3ccccc3=N2)sc1=S , what is its reported IC50?
Solution: 17 µM

Problem: Given the molecule CNC(=O)CSc1nc2nn(-c3ccccc3)c(=O)c-2c2n1CCCCC2 , what is its reported IC50?
Solution: 76.9 µM (inactive)

# ---- query molecule ----
Problem: Given the molecule Cc1nn(C)c(C)c1CN(C)S(=O)(=O)c1ccc2ccccc2c1 , what is its reported IC50?
Solution: > 80 µM (inactive)

====

Tested on: 697B cells, BCR-induced NF-kB luciferase reporter luminescence
Test method notes: inhibitors of BCR-induced NF-kB activation, dose response, 697B cells, luciferase luminescence (AID 489023)
The source made the active and inactive calls. How the calls were made is not given here.
Allowed answers: t = active, f = inactive

Example results:
Problem: Called result for O=C(O)COc1ccc(-c2nccc(-c3ccccn3)n2)cc1
Solution: f

Problem: Called result for COc1cccc(Cn2nnc(C(=O)Nc3cc(Cl)ccc3OC)c2N)c1
Solution: f

Problem: Called result for CC1Cc2ccccc2N1S(=O)(=O)c1cnc(Cl)c(Cl)c1 (configuration not stated)
Solution: f

Problem: Called result for CCC(CC)C(=O)Nc1ccc(Sc2ccc([N+](=O)[O-])cc2)cc1
Solution: f

Problem: Called result for COc1ccccc1/C=C1\SC(=S)N(CCC(=O)Nc2nnc(C)s2)C1=O
Solution: f

Problem: Called result for CCc1ccc(/C=C2/SC(=S)N(CCC(=O)Nc3cccnc3)C2=O)cc1
Solution: t

More entries:
Problem: Called result for CC(C)C[C@@H](N)c1nnc(SCC(=O)c2ccc(Cl)cc2)o1
Solution: f

Problem: Called result for COc1ccc(OC)c(S(=O)(=O)Nc2ccc(-c3ccc4nnc(C)n4n3)cc2)c1
Solution: f

Problem: Called result for Cc1nnc2c3ccccc3c(-c3ccccc3)nn12
Solution: f

Problem: Called result for CCCCn1c2c(c(=N)c3ccccc31)CCC2
Solution: f

Problem: Called result for COc1ccc(C(=O)n2nc(-c3ccc(Cl)cc3)nc2N)cc1OC
Solution: t

Problem: Called result for CCC(C)NC(=O)c1c(N)n(/N=C/c2ccccn2)c2nc3ccccc3nc12 (configuration not stated)
Solution: f

Problem: Called result for CCc1ccc2nc(Nc3nc(COC)cc(=O)[nH]3)nc(C)c2c1
Solution: f

Problem: Called result for Cc1ccc(/C=C2\SC(=S)N(CCC(=O)NNC(=O)c3ccncc3)C2=O)cc1
Solution: f

Problem: Called result for COc1cc(OC)cc(-c2cc3nc(C)c(CCC(=O)Nc4nc(C)cs4)c(C)n3n2)c1
Solution: t

Problem: Called result for Cc1cc(C)cc(NC(=O)Nc2ccc(NC(=O)c3ccccc3O)cc2)c1
Solution: f

Problem: Called result for COc1cc(NC(=O)c2ccco2)c(OC)cc1NC(=O)c1cc(OC)c(OC)c(OC)c1
Solution: f

Problem: Called result for O=c1cccc2c1c1cc[nH]c3ccc(=O)n2c31
Solution: t

Problem: Called result for CC(C)C(=O)Nc1ccc(NC(=O)c2ccc3c(c2)OCO3)cc1
Solution: t

Problem: Called result for Cc1c(CCC(=O)N2CCC(C(=O)O)CC2)c(=O)oc2cc3oc4c(c3cc12)CCCC4
Solution: t

Problem: Called result for O=C(CCCN1C(=O)/C(=C/c2ccccc2Cl)SC1=S)Nc1cccnc1
Solution: t

Problem: Called result for CC1CCN(c2c(NCc3ccc(C(=O)N4c5ccccc5CC4C)cc3)c(=O)c2=O)CC1 (configuration not stated)
Solution: f

====

Test system: 697B cells, BCR-induced NF-kB luciferase reporter luminescence
Test method notes: inhibitors of BCR-induced NF-kB activation, dose response, 697B cells, luciferase luminescence (AID 489023)
Activity calls are given as the source filed them. No rule for the calls is given here.
Allowed answers: TRUE for active, FALSE for inactive

Problem: Called result for CC1Cc2ccccc2N1S(=O)(=O)c1cnc(Cl)c(Br)c1 (stereo not given)
Solution: FALSE

More entries:
Problem: Called result for CNC(=O)c1cccn(Cc2ccc(C(F)(F)F)cc2)c1=O
Solution: FALSE

====

Examples of molecules with documented IC50 follow.
System: 697B cells, BCR-induced NF-kB luciferase reporter luminescence
Test method notes: inhibitors of BCR-induced NF-kB activation, dose response, 697B cells, luciferase luminescence (AID 489023)
Calls of active or inactive are those of the source. How the calls were made is not given here.

Problem: Form: Entry = CCOC(=O)C(=CNc1cc(C)ccc1C)C(=O)OCC | System = 697B cells, BCR-induced NF-kB luciferase reporter luminescence | IC50 = ____
Solution: 49.2 µM (inactive)

Problem: Form: Entry = COc1ccc(OC)c(C2CC(=O)Nc3cc(OC)c(OC)c(OC)c32)c1 (stereo not given) | System = 697B cells, BCR-induced NF-kB luciferase reporter luminescence | IC50 = ____
Solution: > 80 µM (inactive)

Problem: Form: Entry = CCOC(=O)N1CCN(c2ncnc3c2[nH]c2ccc(OC)cc23)CC1 | System = 697B cells, BCR-induced NF-kB luciferase reporter luminescence | IC50 = ____
Solution: 60 µM (inactive)

Problem: Form: Entry = Cn1c(=O)n(C)c2cc(NC(=O)CSc3nnc(-c4ccccc4O)n3-c3ccccc3)ccc21 | System = 697B cells, BCR-induced NF-kB luciferase reporter luminescence | IC50 = ____
Solution: > 80 µM (inactive)

Problem: Form: Entry = COc1ccc(S(=O)(=O)Nc2cc3c(C(C)=O)c(C)oc3c3ccccc23)cc1 | System = 697B cells, BCR-induced NF-kB luciferase reporter luminescence | IC50 = ____
Solution: > 80 µM (inactive)

====

System: 697B cells, BCR-induced NF-kB luciferase reporter luminescence
Test method notes: inhibitors of BCR-induced NF-kB activation, dose response, 697B cells, luciferase luminescence (AID 489023)
Activity calls are given as the source filed them. The rule behind the calls is not given here.
Assay metric: IC50

Problem: Given the molecule Cc1ccccc1-c1cc(C(=O)Nc2sc(C(=O)OC(C)C)c(C)c2C#N)c2ccccc2n1 , what is its reported IC50?
Solution: 42.8 µM (inactive)

Problem: Given the molecule CC(C)(O)/C=C/C(=O)[C@](C)(O)C1[C@H](O)C[C@@]2(C)C3CC=C4C(C[C@H](O)[C@@H](O)C4(C)C)[C@]3(C)C(=O)C[C@]12C (stereo partly drawn) , what is its reported IC50?
Solution: 35.1 µM (inactive)

More entries:
Problem: Given the molecule Cn1c(=O)c2c(SCC(=O)Nc3ccccc3F)nc(-c3ccccc3F)nc2n(C)c1=O , what is its reported IC50?
Solution: 21.8 µM (inactive)
